Molecular target: equine FcRn (large alpha subunit p51) / equine beta-2-microglobulin complex, biotinylated (equine) (UniProt P30441)
Test: SPR (Biacore), pH 6

binder: equine IgG1 T286K (antibody, part only; not given: variable domains, not shown: another chain or arm of the molecule) constant: ASTTAPKVFALAPGCGTTSDSTVALGCLVSGYFPEPVKVSWNSGSLTSGVHTFPSVLQSSGFYSLSSMVTVPASTWTSETYICNVVHAASNFKVDKRIEPIPDNHQKVCDMSKCPKCPAPELLGGPSVFIFPPNPKDTLMITRTPEVTCVVVDVSQENPDVKFNWYMDGVEVRKATTRPKEEQFNSTYRVVSVLRIQHQDWLSGKEFKCKVNNQALPQPIERTITKTKGRSQEPQVYVLAPHPDELSKSKVSVTCLVKDFYPPEINIEWQSNGQPELETKYSTTQAQQDSDGSYFLYSKLSVDRNRWQQGTTFTCGVMHEALHNHYTQKNVSKNPGK
Kd / nM: 37.3

binder: equine IgG4 N434T (antibody, part only; not given: variable domains, not shown: another chain or arm of the molecule) constant: ASTTAPKVFPLASHSAATSGSTVALGCLVSSYFPEPVTVSWNSGALTSGVHTFPSVLQSSGLYSLSSMVTVPASSLKSQTYICNVAHPASSTKVDKKIVIKECNGGCPAECLQVGPSVFIFPPKPKDVLMISRTPTVTCVVVDVGHDFPDVQFNWYVDGVETHTATTEPKQEQFNSTYRVVSVLPIQHKDWLSGKEFKCKVNNKALPAPVERTISKPTGQPREPQVYVLAPHRDELSKNKVSVTCLVKDFYPTDIDIEWKSNGQPEPETKYSTTPAQLDSDGSYFLYSKLTVETNRWQQGTTFTCAVMHEALHTHYTEKSVSKSPGK
Kd / nM: 57.5

binder: equine IgG4 K311P (antibody, part only; not given: Variable domains, not shown: another chain or arm of the molecule) constant: ASTTAPKVFPLASHSAATSGSTVALGCLVSSYFPEPVTVSWNSGALTSGVHTFPSVLQSSGLYSLSSMVTVPASSLKSQTYICNVAHPASSTKVDKKIVIKECNGGCPAECLQVGPSVFIFPPKPKDVLMISRTPTVTCVVVDVGHDFPDVQFNWYVDGVETHTATTEPKQEQFNSTYRVVSVLPIQHPDWLSGKEFKCKVNNKALPAPVERTISKPTGQPREPQVYVLAPHRDELSKNKVSVTCLVKDFYPTDIDIEWKSNGQPEPETKYSTTPAQLDSDGSYFLYSKLTVETNRWQQGTTFTCAVMHEALHNHYTEKSVSKSPGK
Kd / nM: 2000

binder: equine IgG1 T286W (antibody, part only; not given: Variable domains, not shown: another chain or arm of the molecule) constant: ASTTAPKVFALAPGCGTTSDSTVALGCLVSGYFPEPVKVSWNSGSLTSGVHTFPSVLQSSGFYSLSSMVTVPASTWTSETYICNVVHAASNFKVDKRIEPIPDNHQKVCDMSKCPKCPAPELLGGPSVFIFPPNPKDTLMITRTPEVTCVVVDVSQENPDVKFNWYMDGVEVRWATTRPKEEQFNSTYRVVSVLRIQHQDWLSGKEFKCKVNNQALPQPIERTITKTKGRSQEPQVYVLAPHPDELSKSKVSVTCLVKDFYPPEINIEWQSNGQPELETKYSTTQAQQDSDGSYFLYSKLSVDRNRWQQGTTFTCGVMHEALHNHYTQKNVSKNPGK
Kd / nM: 18.4
